Origin of the recorded values: patent US20210171652A1

System Under Test: T1, Band 3 / glycophorin A (Wright b, Wrb epitope) on human red blood cells (human, UniProt P02724 20-150)
T1 construct: whole, on cells; also called Band3/GPA; AE1
T1 sequence 1: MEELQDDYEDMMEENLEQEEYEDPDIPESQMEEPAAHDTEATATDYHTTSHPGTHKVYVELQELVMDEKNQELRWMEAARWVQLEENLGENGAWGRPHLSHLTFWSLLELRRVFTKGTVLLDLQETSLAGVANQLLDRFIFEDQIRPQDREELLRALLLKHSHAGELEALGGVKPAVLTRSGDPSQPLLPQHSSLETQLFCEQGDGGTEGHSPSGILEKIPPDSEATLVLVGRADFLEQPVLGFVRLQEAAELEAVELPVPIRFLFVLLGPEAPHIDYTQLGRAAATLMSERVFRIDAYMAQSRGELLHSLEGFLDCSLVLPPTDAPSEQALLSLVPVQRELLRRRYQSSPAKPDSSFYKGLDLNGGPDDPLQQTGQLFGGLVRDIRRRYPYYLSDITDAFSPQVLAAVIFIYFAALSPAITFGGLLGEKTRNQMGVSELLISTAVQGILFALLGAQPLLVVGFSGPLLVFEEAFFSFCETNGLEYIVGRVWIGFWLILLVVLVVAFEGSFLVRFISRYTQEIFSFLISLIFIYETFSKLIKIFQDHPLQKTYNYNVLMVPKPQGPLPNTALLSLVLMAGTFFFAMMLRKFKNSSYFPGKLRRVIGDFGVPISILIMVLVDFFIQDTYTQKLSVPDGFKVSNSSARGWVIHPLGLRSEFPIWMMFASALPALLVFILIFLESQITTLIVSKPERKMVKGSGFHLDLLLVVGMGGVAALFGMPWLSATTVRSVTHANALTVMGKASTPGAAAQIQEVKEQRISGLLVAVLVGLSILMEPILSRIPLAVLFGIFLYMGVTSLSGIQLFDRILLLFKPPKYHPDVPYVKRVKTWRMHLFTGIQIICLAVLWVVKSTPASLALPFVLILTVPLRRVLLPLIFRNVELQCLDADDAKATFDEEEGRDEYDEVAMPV
T1 sequence 2: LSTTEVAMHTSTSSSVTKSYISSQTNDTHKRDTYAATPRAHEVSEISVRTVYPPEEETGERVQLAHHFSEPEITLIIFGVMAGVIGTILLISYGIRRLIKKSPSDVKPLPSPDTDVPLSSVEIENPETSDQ
Assay Comment: Fab/phage binding assays on human RBCs incl. rare RBC types lacking conserved antigens

Binder	binding result
KP2-15 Fab/phage clone (anti-Band 3, Wrb) (Fab, V domains shown) VH: EVQLLESGPGLVKPSETLSLTCAVSGGSISGGYDWSWIRQSPGKGLEWIGYIYDSRGTTNYNPSLRKRVTISIDTSRNQFSLKLRSLTAADTAVYYCARRAGYGSAYFDYWGQGVLVTVSS VL: AAELTQSPATLSVSPGEAATLSCRASQTVGRNLAWYQQKPGQAPKLLVHSAHFRATGIPDRFSGSGSGTDFTLTISSLEPEDAGIYHCQQYNDLLPLTFGGGTKVEIK	binds
KP2-07 Fab/phage clone (anti-Band 3, Wrb) (Fab, V domains shown) VH: EVQLLESGPGLVKPSETLSLTCAVSGDSISSGYGWHWIRQVPGRGLEWIGSIGGSRGTTNYNPSLKSRVTISEDTSKNQFSLSLRSVSAADTAVYFCARDSGYSFRYFDFWGQGVLVTVSS VL: ELVMTQSPATLSLSPGETATLSCRASQSVGSNLAWYQQKPGQAPKLLVHSAYFRATGIPDRFSGSGSRTDFTLTISSLEPEDVGVYHCQQYNDLLPLTFGGGTKVEIN	binds
